Source listed as PubChem BioAssay AID2060500.

- System: 596521-263-R-J1-PDC complex spheroids, viability % of control
- method.notes: Anticancer human tumor 596521-263-R-J1-PDC patient-derived soft tissue sarcoma cell line growth inhibition [GQUAD]
- stated.conditions: second compound 0.0316 µM; first compound 0.1 µM; stronger effect = lower value
viability, T/C values by entry
quantity.measured: viability, T/C (%)

CCCS(=O)(=O)Nc1ccc(F)c(C(=O)c2c[nH]c3ncc(-c4ccc(Cl)cc4)cc23)c1F + Cc1[nH]c2ccc(F)cc2c1-c1nc2c3cccnc3c3ncccc3c2[nH]1 | 73.5
C=CCn1c(=O)c2cnc(Nc3ccc(N4CCN(C)CC4)cc3)nc2n1-c1cccc(C(C)(C)O)n1 + Cc1cnc(CNC(=O)c2c(=O)c3ccc(N4CCCN(C)CC4)nc3n3c2sc2ccccc23)cn1 | 79.2
C#Cc1c(F)ccc2cc(O)cc(-c3ncc4c(N5CC6CCC(C5)N6)nc(OCC56CCCN5CC(F)C6)nc4c3F)c12 (stereo not drawn) + CN(C)c1ccc(Nc2c3ccc(NC(=O)CCN4CCCC4)cc3nc3cc(NC(=O)CCN4CCCC4)ccc23)cc1 | 95.1

---

Overview of reported viability, T/C across a group of compounds:
- System: 596521-263-R-J1-PDC complex spheroids, viability % of control
- method.notes: Anticancer human tumor 596521-263-R-J1-PDC cell line growth inhibition [GQUAD];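 also: spheroids exposed to drugs for 7 days before viability reading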;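 as to viability, T/C: 100% = DMSO vehicle control viability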
- stated.conditions: second compound 1 µM; first compound 1 µM; stronger effect = lower value
quantity.measured: viability, T/C (%)

O=C(c1cc(Cc2n[nH]c(=O)c3ccccc23)ccc1F)N1CCN(C(=O)C2CC2)CC1 + Cc1[nH]c2ccc(F)cc2c1-c1nc2c3cccnc3c3ncccc3c2[nH]1 | 85.2
COc1ccc([C@@H](O)c2cc(-c3ncnc4cc(N5CCOCC5)ccc34)c(F)cc2Cl)nn1 + Cc1cnc(CNC(=O)c2c(=O)c3ccc(N4CCCN(C)CC4)nc3n3c2sc2ccccc23)cn1 | 42.5
COc1ccc([C@@H](O)c2cc(-c3ncnc4cc(N5CCOCC5)ccc34)c(F)cc2Cl)nn1 + Cc1[nH]c2ccc(F)cc2c1-c1nc2c3cccnc3c3ncccc3c2[nH]1 | 81.2
CC1COCCN1c1cc(C2(O)CC3CCC(C2)O3)c2cnn(-c3ccn[nH]3)c2n1 (stereo not given) + CN(C)c1ccc(Nc2c3ccc(NC(=O)CCN4CCCC4)cc3nc3cc(NC(=O)CCN4CCCC4)ccc23)cc1 | 31.1
C=CCn1c(=O)c2cnc(Nc3ccc(N4CCN(C)CC4)cc3)nc2n1-c1cccc(C(C)(C)O)n1 + Cc1[nH]c2ccc(F)cc2c1-c1nc2c3cccnc3c3ncccc3c2[nH]1 | 90.2

---

- Test system: 596521-263-R-J1-PDC complex spheroids, viability % of control
- method.notes: Anticancer human tumor 596521-263-R-J1-PDC cell line growth inhibition [GQUAD];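 also: spheroids exposed to drugs for 7 days before viability reading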;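 as to viability, T/C: 100% = DMSO vehicle control viability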
- stated.conditions: second compound 1 µM; first compound 0.00316 µM; stronger effect = lower value
- Description: DNA G-quadruplex Stabilizer Agents in Combinations in Complex Spheroids A high-throughput screen of multi-cell type tumor spheroids was designed to identify active combinations of DNA G-quadruplex stabilizer agents and targeted small molecules. […] Compounds. […] If the clinical Cmax for an agent had not been determined, the highest concentration tested was 10 microM. […]
quantity.measured: viability, T/C (%)

CC[C@@]1(O)C(=O)OCc2c1cc1n(c2=O)Cc2cc3c(CN(C)C)c(O)ccc3nc2-1 + CN(C)c1ccc(Nc2c3ccc(NC(=O)CCN4CCCC4)cc3nc3cc(NC(=O)CCN4CCCC4)ccc23)cc1 | 92.9
Cc1[nH]c2ccccc2c1CCNCc1ccc(/C=C/C(=O)NO)cc1 + Cc1[nH]c2ccc(F)cc2c1-c1nc2c3cccnc3c3ncccc3c2[nH]1 | 99.6
CCc1c2c(nc3ccc(O)cc13)-c1cc3c(c(=O)n1C2)COC(=O)[C@]3(O)CC + Cc1cnc(CNC(=O)c2c(=O)c3ccc(N4CCCN(C)CC4)nc3n3c2sc2ccccc23)cn1 | 61.7
Cn1ncnc1[C@H]1c2n[nH]c(=O)c3cc(F)cc(c23)N[C@@H]1c1ccc(F)cc1 + CN(C)c1ccc(Nc2c3ccc(NC(=O)CCN4CCCC4)cc3nc3cc(NC(=O)CCN4CCCC4)ccc23)cc1 | 89.5
Cn1ncnc1[C@H]1c2n[nH]c(=O)c3cc(F)cc(c23)N[C@@H]1c1ccc(F)cc1 + Cc1cnc(CNC(=O)c2c(=O)c3ccc(N4CCCN(C)CC4)nc3n3c2sc2ccccc23)cn1 | 66.2
CC[C@@]1(O)C(=O)OCc2c1cc1n(c2=O)Cc2cc3c(CN(C)C)c(O)ccc3nc2-1 + Cc1cnc(CNC(=O)c2c(=O)c3ccc(N4CCCN(C)CC4)nc3n3c2sc2ccccc23)cn1 | 60.2
CC[C@@]1(O)C(=O)OCc2c1cc1n(c2=O)Cc2cc3c(CN(C)C)c(O)ccc3nc2-1 + Cc1[nH]c2ccc(F)cc2c1-c1nc2c3cccnc3c3ncccc3c2[nH]1 | 109
Cc1[nH]c2ccccc2c1CCNCc1ccc(/C=C/C(=O)NO)cc1 + CN(C)c1ccc(Nc2c3ccc(NC(=O)CCN4CCCC4)cc3nc3cc(NC(=O)CCN4CCCC4)ccc23)cc1 | 88.3
CCc1c2c(nc3ccc(O)cc13)-c1cc3c(c(=O)n1C2)COC(=O)[C@]3(O)CC + CN(C)c1ccc(Nc2c3ccc(NC(=O)CCN4CCCC4)cc3nc3cc(NC(=O)CCN4CCCC4)ccc23)cc1 | 57
Cc1[nH]c2ccccc2c1CCNCc1ccc(/C=C/C(=O)NO)cc1 + Cc1cnc(CNC(=O)c2c(=O)c3ccc(N4CCCN(C)CC4)nc3n3c2sc2ccccc23)cn1 | 67.5
Cn1ncnc1[C@H]1c2n[nH]c(=O)c3cc(F)cc(c23)N[C@@H]1c1ccc(F)cc1 + Cc1[nH]c2ccc(F)cc2c1-c1nc2c3cccnc3c3ncccc3c2[nH]1 | 90.9
CCc1c2c(nc3ccc(O)cc13)-c1cc3c(c(=O)n1C2)COC(=O)[C@]3(O)CC + Cc1[nH]c2ccc(F)cc2c1-c1nc2c3cccnc3c3ncccc3c2[nH]1 | 58.4

---

Catalogue of viability, T/C values
- Tested on: 596521-263-R-J1-PDC complex spheroids, viability % of control
- method.notes: Anticancer human tumor 596521-263-R-J1-PDC cell line growth inhibition [GQUAD];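 also: spheroids exposed to drugs for 7 days before viability reading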;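 as to viability, T/C: 100% = DMSO vehicle control viability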
- stated.conditions: second compound 0.316 µM; first compound 0.316 µM; stronger effect = lower value
quantity.measured: viability, T/C (%)

O=C(c1cc(Cc2n[nH]c(=O)c3ccccc23)ccc1F)N1CCN(C(=O)C2CC2)CC1 + Cc1[nH]c2ccc(F)cc2c1-c1nc2c3cccnc3c3ncccc3c2[nH]1 | 91.8
O=C(NO)c1cnc(N2CCN(S(=O)(=O)c3ccc4ccccc4c3)CC2)nc1 + Cc1[nH]c2ccc(F)cc2c1-c1nc2c3cccnc3c3ncccc3c2[nH]1 | 29.6
COc1cc(C2c3cc4c(cc3C(OC3OC5COC(C)OC5C(O)C3O)C3COC(=O)C23)OCO4)cc(OC)c1O (stereo not given) + Cc1cnc(CNC(=O)c2c(=O)c3ccc(N4CCCN(C)CC4)nc3n3c2sc2ccccc23)cn1 | 81.6
CC[C@@]1(O)C(=O)OCc2c1cc1n(c2=O)Cc2cc3c(CN(C)C)c(O)ccc3nc2-1 + Cc1cnc(CNC(=O)c2c(=O)c3ccc(N4CCCN(C)CC4)nc3n3c2sc2ccccc23)cn1 | 65.7
CCCS(=O)(=O)Nc1ccc(F)c(C(=O)c2c[nH]c3ncc(-c4ccc(Cl)cc4)cc23)c1F + Cc1[nH]c2ccc(F)cc2c1-c1nc2c3cccnc3c3ncccc3c2[nH]1 | 61.1

---

- Tested on: 596521-263-R-J1-PDC complex spheroids, viability % of control
- method.notes: Anticancer human tumor 596521-263-R-J1-PDC cell line growth inhibition [GQUAD];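 also: spheroids exposed to drugs for 7 days before viability reading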
- stated.conditions: curve of first compound; second compound 0.316 µM
pIC50: −log10 of the molar value.
quantity.measured: pIC50

O=C(NO)c1cnc(N2CCN(S(=O)(=O)c3ccc4ccccc4c3)CC2)nc1 + CN(C)c1ccc(Nc2c3ccc(NC(=O)CCN4CCCC4)cc3nc3cc(NC(=O)CCN4CCCC4)ccc23)cc1 | 6.90
CC1COCCN1c1cc(C2(O)CC3CCC(C2)O3)c2cnn(-c3ccn[nH]3)c2n1 (stereo not given) + Cc1[nH]c2ccc(F)cc2c1-c1nc2c3cccnc3c3ncccc3c2[nH]1 | 6.68

---

- Tested on: 596521-263-R-J1-PDC complex spheroids, viability % of control
- method.notes: Anticancer human tumor 596521-263-R-J1-PDC cell line growth inhibition [GQUAD];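 also: spheroids exposed to drugs for 7 days before viability reading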;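 as to viability, T/C: 100% = DMSO vehicle control viability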
- stated.conditions: second compound 10 µM; first compound 10 µM; stronger effect = lower value
quantity.measured: viability, T/C

COc1cc(C2c3cc4c(cc3C(OC3OC5COC(C)OC5C(O)C3O)C3COC(=O)C23)OCO4)cc(OC)c1O (stereo not given) + Cc1[nH]c2ccc(F)cc2c1-c1nc2c3cccnc3c3ncccc3c2[nH]1 | 39.5%
CCCS(=O)(=O)Nc1ccc(F)c(C(=O)c2c[nH]c3ncc(-c4ccc(Cl)cc4)cc23)c1F + CN(C)c1ccc(Nc2c3ccc(NC(=O)CCN4CCCC4)cc3nc3cc(NC(=O)CCN4CCCC4)ccc23)cc1 | 30.1%
COc1ncnc(C2CC2)c1-c1ncc2cnn(Cc3ccc(-c4nc(C(F)(F)F)cn4C(C)C)cc3)c2n1 + Cc1[nH]c2ccc(F)cc2c1-c1nc2c3cccnc3c3ncccc3c2[nH]1 | 1.93%
CC(C)(O)C1CCC(Nc2ccc3ncc(-c4cccc(C(F)(F)F)c4)n3n2)CC1 (stereo not given) + CN(C)c1ccc(Nc2c3ccc(NC(=O)CCN4CCCC4)cc3nc3cc(NC(=O)CCN4CCCC4)ccc23)cc1 | 13.1%
Cc1cccc(N(C)C(=O)C2C(O)CCN2c2nc(C)cc(C(F)(F)F)c2C#N)c1 (stereo not given) + Cc1[nH]c2ccc(F)cc2c1-c1nc2c3cccnc3c3ncccc3c2[nH]1 | 91.4%
